# Tested on: PA-1
# testProtocol: Confirmatory qHTS for gynecologic anti-cancer compounds from libraries of approved drugs and bioactive compounds; note: nearly all actives have a fitted effect of over 55% in size
# conditionDescription: gynecologic cancer cell panel viability, ATPlite luminescence, 48 h; series mostly up to 57.6 µM
# Source text: National Center for Advancing Translational Sciences [NCATS] Assay Overview: Chemotherapeutic drug responses vary from cancer to cancer and from patient to patient. […] ATPlite is a luminescence based assay reliant on the conversion of a luciferase substrate to light in the presence of ATP. As a cytotoxic compound will suppress growth and decrease the number of cells, the concentration of ATP will decrease, and less light signal will be detected in the well. […]
Records with an inconclusive call do not appear. Calls of active or inactive are those of the source. Calls come from the whole dose curve; as a rule, active = well fitted cell-killing curve with a large enough effect; inconclusive = small, poorly fitted or top-dose-only effect, or effect the other way; inactive = no such curve, though single readings can be large or run the other way.
# output must be one of active, inactive

inputSmiles	discreteLabel
NC(=O)c1ccc2nc(-c3ccc(Oc4ccc(Cl)cc4)cc3)[nH]c2c1	active
CC[C@]1(O)C[C@H]2CN(CCc3c([nH]c4ccccc34)[C@@](C(=O)OC)(c3cc4c(cc3OC)N(C=O)[C@H]3[C@@](O)(C(=O)OC)[C@H](OC(C)=O)[C@]5(CC)C=CCN6CC[C@]43[C@@H]65)C2)C1	active
CNc1nccc(-c2cccnc2Oc2cc(C(=O)Nc3cccc(C(F)(F)F)c3)ccc2C)n1	active
COc1ccc2c(c1)c(CC(=O)O)c(C)n2C(=O)c1ccc(Cl)cc1	active
Cc1cnc(Nc2ccc(CN3CCOCC3)cc2)nc1Nc1cccc(S(=O)(=O)NC(C)(C)C)c1	active

Now consider the entry below.
Exam item: Test call, this molecule: `CCC(=O)N1CCN(c2ccc(-n3c(=O)ccc4cnc5ccc(-c6cnc7ccccc7c6)cc5c43)cc2C(F)(F)F)CC1`
Marked response: active

---

# System: PA-1
# testProtocol: Confirmatory qHTS for gynecologic anti-cancer compounds from libraries of approved drugs and bioactive compounds; note: nearly all actives have a fitted effect of over 55% in size
# conditionDescription: gynecologic cancer cell panel viability, ATPlite luminescence, 48 h; series mostly up to 57.6 µM
Records with an inconclusive call do not appear. The source made the active and inactive calls. Calls come from the whole dose curve; as a rule, active = well fitted cell-killing curve with a large enough effect; inconclusive = small, poorly fitted or top-dose-only effect, or effect the other way; inactive = no such curve, though single readings can be large or run the other way.
// allowed return values: 1 = active, 0 = inactive

Use these answered entries as a reference point.
compound	discreteLabel
Cc1cc(C2CCCCC2)n(O)c(=O)c1	1
Cc1ccc(C(N)=O)cc1Nc1nccc(-c2cn(C(C)C)c3cnccc23)n1	1
COc1cc(N2CCC(N3CCN(C)CC3)CC2)ccc1Nc1ncc(Cl)c(Nc2ccccc2S(=O)(=O)C(C)C)n1	1
CCC1C(=O)N(C)c2cnc(Nc3ccc(C(=O)NC4CCN(C)CC4)cc3OC)nc2N1C1CCCC1 (stereo unspecified)	1
NS(=O)(=O)c1ccc(Nc2nc(OCC3CCCCC3)c3[nH]cnc3n2)cc1	0

Consider the additional compound presented here.
Exam item: # fetch the recorded call for `CCN(CC)CCNC(=O)c1c(C)[nH]c(/C=C2\C(=O)Nc3ccc(F)cc32)c1C` here
Marked response: 1

---

# System: PA-1
# testProtocol: Confirmatory qHTS for gynecologic anti-cancer compounds from libraries of approved drugs and bioactive compounds; note: nearly all actives have a fitted effect of over 55% in size
# conditionDescription: gynecologic cancer cell panel viability, ATPlite luminescence, 48 h; series mostly up to 57.6 µM
Records with an inconclusive call do not appear. The source made the active and inactive calls. Calls come from the whole dose curve; as a rule, active = well fitted cell-killing curve with a large enough effect; inconclusive = small, poorly fitted or top-dose-only effect, or effect the other way; inactive = no such curve, though single readings can be large or run the other way.
Outcomes you can answer with include only these: active, inactive

Study these solved cases before continuing.
inputSmiles	targetDesc	discreteLabel
CNC(=O)c1ccccc1Nc1nc(Nc2ccc(N3CCOCC3)cc2OC)ncc1Cl	PA-1	active
CCCCc1oc2ccccc2c1C(=O)c1cc(I)c(OCCN(CC)CC)c(I)c1	PA-1	active
Nc1ccccc1NC(=O)c1ccc(CNC(=O)OCc2cccnc2)cc1	PA-1	active
Cc1cnc(CNC(=O)c2c(=O)c3ccc(N4CCCN(C)CC4)nc3n3c2sc2ccccc23)cn1	PA-1	active
COc1cc2nccc(Oc3ccc(NC(=O)C4(C(=O)Nc5ccc(F)cc5)CC4)cc3)c2cc1OC	PA-1	active
O=c1cc(CN2CCOCC2)occ1OCCCCCSc1ccnc2cc(C(F)(F)F)ccc12	PA-1	active
CC(C)CC(=O)Nc1n[nH]c2c1CN(C(=O)C1CCN(C)CC1)C2(C)C	PA-1	active

Read the next record carefully.
Exam item: Tell me the recorded outcome of this test for `CO[C@@]12[C@H](COC(N)=O)C3=C(C(=O)C(C)=C(N)C3=O)N1C[C@@H]1N[C@@H]12` .
Marked response: inactive

---

# Test system: PA-1
# testProtocol: Confirmatory qHTS for gynecologic anti-cancer compounds from libraries of approved drugs and bioactive compounds; note: nearly all actives have a fitted effect of over 55% in size; note: potency is the fitted concentration of half-maximal effect
# conditionDescription: gynecologic cancer cell panel viability, ATPlite luminescence, 48 h; series mostly up to 57.6 µM
# Source text: National Center for Advancing Translational Sciences [NCATS] Assay Overview: Chemotherapeutic drug responses vary from cancer to cancer and from patient to patient. […] ATPlite is a luminescence based assay reliant on the conversion of a luciferase substrate to light in the presence of ATP. As a cytotoxic compound will suppress growth and decrease the number of cells, the concentration of ATP will decrease, and less light signal will be detected in the well. […]
Records with an inconclusive call do not appear. Active and inactive are the calls of the source. Calls follow the shape of the dose curve; as a rule, active = well fitted cell-killing curve with a large enough effect; inconclusive = small, poorly fitted or top-dose-only effect, or effect the other way; inactive = no such curve, though single readings can be large or run the other way.
attributeMeasured: Potency

compound	attributeMeasured	measuredResult
CCc1c2c(nc3ccc(OC(=O)N4CCC(N5CCCCC5)CC4)cc13)-c1cc3c(c(=O)n1C2)COC(=O)[C@]3(O)CC	Potency	7.69 µM (active)
Cc1cc(Nc2cc(N3CCN(C)CC3)nc(Sc3ccc(NC(=O)C4CC4)cc3)n2)n[nH]1	Potency	2.17 µM (active)
CC1=C(CO)C(=O)O[C@@H]([C@@H](C)[C@H]2CC[C@H]3[C@@H]4C[C@H]5O[C@]56[C@@H](O)C=CC(=O)[C@]6(C)[C@H]4CC[C@]23C)C1	Potency	1.68 µM (active)
CN1CCN(CCOc2cc(OC3CCOCC3)c3c(Nc4c(Cl)ccc5c4OCO5)ncnc3c2)CC1	Potency	19.3 µM (active)
CCOc1cc2ncc(C#N)c(Nc3ccc(F)c(Cl)c3)c2cc1NC(=O)/C=C/CN(C)C	Potency	17.2 µM (active)

Please supply Potency for each of the following items, keeping them in order.
1. CCC1=CC2CN(C1)Cc1c([nH]c3ccccc13)[C@@](C(=O)OC)(c1cc3c(cc1OC)N(C)[C@H]1[C@@](O)(C(=O)OC)[C@H](OC(C)=O)[C@]4(CC)C=CCN5CC[C@]31[C@@H]54)C2 (stereo not given in full)
2. CCn1cc(-c2ccnc3[nH]c(-c4cccc(CN(C)C)c4)cc23)c(-c2ccc(NC(=O)N(C)C)cc2)n1
3. Cc1ccc(C(=O)Nc2cccc(C(F)(F)F)c2)cc1-c1ccc2nc(NCCN3CCOCC3)ncc2c1
4. Oc1cn2c(n1)Nc1ccc(Cl)c(Cl)c1C2
5. Cc1cc(SCc2sc(-c3ccc(C(F)(F)F)cc3)nc2C)ccc1OCC(=O)O

Marked response:
1. 0.053 µM (active)
2. 8.41 µM (active)
3. 17.2 µM (active)
4. inactive
5. inactive

Look up Potency for the entries below, preserving their order.
1. CCS(=O)(=O)N1CCN(c2ccc(Nc3ncc(C(N)=O)c(NC4CC4)n3)cc2)CC1
2. COc1cc(Nc2ncc3c(n2)-c2ccc(Cl)cc2C(c2c(F)cccc2OC)=NC3)ccc1C(=O)O
3. Cc1ccc(C(=O)Nc2ccc(CN3CCN(C)CC3)c(C(F)(F)F)c2)cc1C#Cc1cnc2cccnn12
4. NC(=O)Nc1cc(-c2cccc(F)c2)sc1C(=O)NC1CCCNC1 (stereo not given)
5. CCN1CCN(Cc2ccc(-c3cc4c(NC(C)c5ccccc5)ncnc4[nH]3)cc2)CC1 (stereo not given)

Marked response:
["3.85 µM (active)", "0.193 µM (active)", "6.85 µM (active)", "1.72 µM (active)", "24.3 µM (active)"]

---

# Tested on: PA-1
# testProtocol: Confirmatory qHTS for gynecologic anti-cancer compounds from libraries of approved drugs and bioactive compounds; note: nearly all actives have a fitted effect of over 55% in size
# conditionDescription: gynecologic cancer cell panel viability, ATPlite luminescence, 48 h; series mostly up to 57.6 µM
Results filed as inconclusive are left out. Active and inactive are the calls of the source. Calls follow the shape of the dose curve; as a rule, active = well fitted cell-killing curve with a large enough effect; inconclusive = small, poorly fitted or top-dose-only effect, or effect the other way; inactive = no such curve, though single readings can be large or run the other way.
Reply using exactly one outcome from T = active, F = inactive

Past entries and their recorded results:
compound	discreteLabel
Cc1nc(NC(=O)N2CCCC2C(N)=O)sc1-c1ccnc(C(C)(C)C(F)(F)F)c1 (centres undefined)	T
Nc1nc(=S)c2[nH]cnc2[nH]1	T
Cc1cc(Nc2nc(N[C@@H](C)c3ccc(F)cc3)c(C#N)cc2F)n[nH]1	T
CC(C)n1c(/C=C/[C@@H](O)C[C@@H](O)CC(=O)O)c(-c2ccc(F)cc2)c2ccccc21	T

Exam item: Kindly provide the recorded test outcome for the following compound: `CC[C@]1(O)C[C@@H]2CN(CCc3c([nH]c4ccccc34)[C@@](C(=O)OC)(c3cc4c(cc3OC)N(C)[C@H]3[C@@](O)(C(=O)OC)[C@H](OC(C)=O)[C@]5(CC)C=CCN6CC[C@]43[C@@H]65)C2)C1`
Marked response: T

Exam item: Hi, sorry to bother you, what did the test record for CN1C2CCC1CC(OC(=O)[C@H](CO)c1ccccc1)C2 (some centres undefined) ?
Marked response: F

Exam item: What is the recorded call for this compound in the test? Cc1nc2ccc(CN(C)c3ccc(C(=O)NC(CCC(=O)O)C(=O)O)s3)cc2c(=O)[nH]1 (centres undefined)
Marked response: T

Exam item: Recorded test outcome, item `COc1cccc2c1C(=O)c1c(O)c3c(c(O)c1C2=O)C[C@@](O)(C(=O)CO)C[C@@H]3O[C@H]1C[C@H](N)[C@H](O[C@@H]2CCCCO2)[C@H](C)O1`
Marked response: T

Exam item: Tell me the recorded outcome of this test for `Cc1csc(NC(=O)c2sc3nc4c(c(C(F)(F)F)c3c2N)CCC4)n1` .
Marked response: T
